Tested on: Fusarium oxysporum
Assay: Antifungal activity against Fusarium oxysporum at 30 ug/ml after 72 hrs by agar well diffusion method
Assay type: functional
Conditions: read-out: DIZ
Numbered stars: 1 amine (or outer) side, 2 acyl side, 3 side chain; on linkers, the order of the positions; unused ones are H or OH. Peptide text beside a SMILES is read from it. * marks the point of attachment. Piperazinyl(4-(2,3-Cl2Ph)) = Clc1cccc(N2CCN(*)CC2)c1Cl; Thiocarbamoyl(N-4-ClPh) = S=C(Nc1ccc(Cl)cc1)*; Thiocarbamoyl(4-MeOPh) = COc1ccc(NC(=S)*)cc1; NH(4-MeO-phenyl) = COc1ccc(N*)cc1; X1 = Fc1ccc2c(C3CCN(*)CC3)noc2c1; CO = O=C([*:1])[*:2]
measurement kind: zone of inhibition at 30 µg/mL (mm)
Give the value, in units of mm, as a plain number.

{"columns": ["molecule", "measured number"],
 "data": [
  ["O=C(CNC(=S)Nc1ccc(Cl)cc1)NCC(=O)N[C@@H](Cc1ccccc1)C(=O)N1CCC[C@H]1C(=O)N1CCC(c2noc3cc(F)ccc23)CC1 ({Thiocarbamoyl(N-4-ClPh)}-GGFP-X1)", 31],
  ["CC[C@H](C)[C@H](NC(=O)CNC(=O)CNC(=S)Nc1ccc(Cl)cc1)C(=O)N1CCC[C@H]1C(=O)N1CCN(c2cccc(Cl)c2Cl)CC1 ({Thiocarbamoyl(N-4-ClPh)}-GGIP-{Piperazinyl(4-(2,3-Cl2Ph))})", 28],
  ["O=C(CNC(=S)Nc1ccc(Cl)cc1)NCC(=O)N[C@@H](Cc1ccccc1)C(=O)N1CCC[C@H]1C(=O)N1CCN(c2cccc(Cl)c2Cl)CC1 ({Thiocarbamoyl(N-4-ClPh)}-GGFP-{Piperazinyl(4-(2,3-Cl2Ph))})", 30],
  ["O=C(CNC(=S)Nc1ccc(Cl)cc1)N[C@@H](Cc1ccccc1)C(=O)NCC(=O)N[C@@H](Cc1ccccc1)C(=O)N1CCC[C@H]1C(=O)N1CCC(c2noc3cc(F)ccc23)CC1 ({Thiocarbamoyl(N-4-ClPh)}-GFGFP-X1)", 36],
  ["COc1ccc(NC(=O)NCC(=O)NCC(=O)N[C@@H](Cc2ccccc2)C(=O)N2CCC[C@H]2C(=O)N2CCC(c3noc4cc(F)ccc34)CC2)cc1 ({NH(4-MeO-phenyl)-CO}-GGFP-X1)", 23],
  ["COc1ccc(NC(=S)NCC(=O)NCC(=O)N[C@@H](Cc2ccccc2)C(=O)N2CCC[C@H]2C(=O)N2CCN(c3cccc(Cl)c3Cl)CC2)cc1 ({Thiocarbamoyl(4-MeOPh)}-GGFP-{Piperazinyl(4-(2,3-Cl2Ph))})", 24]
]}

stdin: Requested field: zone of inhibition at 30 µg/mL. Item: CC[C@H](C)[C@H](NC(=O)CNC(=O)CNC(=S)Nc1ccc(OC)cc1)C(=O)N1CCC[C@H]1C(=O)N1CCC(c2noc3cc(F)ccc23)CC1 ({Thiocarbamoyl(4-MeOPh)}-GGIP-X1)
stdout: 24

stdin: Requested field: zone of inhibition at 30 µg/mL. Item: "O=C([C@H](Cc1c[nH]c2ccccc12)NC(=S)Nc1ccccc1F)N1CCC(c2noc3cc(F)ccc23)CC1"
stdout: 7

---

Test system: Aspergillus flavus
Experiment: Antifungal activity against Aspergillus flavus after 72 hrs by microdilution method
Assay type: functional
Numbered stars: 1 amine (or outer) side, 2 acyl side, 3 side chain; on linkers, the order of the positions; unused ones are H or OH. Peptide text beside a SMILES is read from it. * marks the point of attachment. Piperazinyl(4-(2,3-Cl2Ph)) = Clc1cccc(N2CCN(*)CC2)c1Cl; NH(4-Cl-phenyl) = Clc1ccc(N*)cc1; X1 = Fc1ccc2c(C3CCN(*)CC3)noc2c1; NH(2-F-phenyl) = Fc1ccccc1N*; CO = O=C([*:1])[*:2]
measurement kind: MIC (µg/mL)
Give the value, in units of µg/mL, as a plain number.

{"columns": ["molecule", "measurement kind", "units symbol", "measured number"],
 "data": [
  ["O=C(CNC(=O)Nc1ccc(Cl)cc1)N[C@@H](Cc1ccccc1)C(=O)NCC(=O)N[C@@H](Cc1ccccc1)C(=O)N1CCC[C@H]1C(=O)N1CCC(c2noc3cc(F)ccc23)CC1 ({NH(4-Cl-phenyl)-CO}-GFGFP-X1)", "MIC", "µg/mL", 6.25]
]}

stdin: Recorded MIC for CC(C)[C@H](NC(=O)CNC(=O)Nc1ccccc1F)C(=O)NCC(=O)N[C@H](C(=O)N1CCC[C@H]1C(=O)N1CCN(c2cccc(Cl)c2Cl)CC1)C(C)C ({NH(2-F-phenyl)-CO}-GVGVP-{Piperazinyl(4-(2,3-Cl2Ph))}) with Aspergillus flavus, please?
stdout: 6.25

stdin: Recorded MIC for "COC(=O)Nc1nc2ccccc2[nH]1" with Aspergillus flavus, please?
stdout: 26

---

Tested on: Xanthomonas oryzae
Test: Antibacterial activity against Xanthomonas oryzae at 30 ug/ml after 24 hrs by agar well diffusion method
Type: functional
Conditions: read-out: DIZ
Peptide text beside a SMILES is read from it. * marks the point of attachment. Piperazinyl(4-(2,3-Cl2Ph)) = Clc1cccc(N2CCN(*)CC2)c1Cl; Thiocarbamoyl(N-4-ClPh) = S=C(Nc1ccc(Cl)cc1)*; Thiocarbamoyl(4-MeOPh) = COc1ccc(NC(=S)*)cc1
measurement kind: zone of inhibition at 30 µg/mL (mm)
Give the value, in units of mm, as a plain number.

Some solved cases for reference:
{"columns": ["molecule", "assayed target", "zone of inhibition at 30 µg/mL / mm"],
 "data": [
  ["CC1(C)S[C@@H]2[C@H](NC(=O)[C@H](N)c3ccc(O)cc3)C(=O)N2[C@H]1C(=O)O", "Xanthomonas oryzae", 9],
  ["O=C(CNC(=S)Nc1ccc(Cl)cc1)N[C@@H](Cc1ccccc1)C(=O)NCC(=O)N[C@@H](Cc1ccccc1)C(=O)N1CCC[C@H]1C(=O)N1CCN(c2cccc(Cl)c2Cl)CC1 ({Thiocarbamoyl(N-4-ClPh)}-GFGFP-{Piperazinyl(4-(2,3-Cl2Ph))})", "Xanthomonas oryzae", 33],
  ["CC(C)[C@H](NC(=O)CNC(=S)Nc1ccc(Cl)cc1)C(=O)NCC(=O)N[C@H](C(=O)N1CCC[C@H]1C(=O)N1CCN(c2cccc(Cl)c2Cl)CC1)C(C)C ({Thiocarbamoyl(N-4-ClPh)}-GVGVP-{Piperazinyl(4-(2,3-Cl2Ph))})", "Xanthomonas oryzae", 31]
]}

stdin: Requested field: zone of inhibition at 30 µg/mL. Item: "O=C([C@H](Cc1c[nH]c2ccccc12)NC(=S)Nc1ccccc1F)N1CCC(c2noc3cc(F)ccc23)CC1"
stdout: 12

stdin: Requested field: zone of inhibition at 30 µg/mL. Item: CC[C@H](C)[C@H](NC(=O)CNC(=O)CNC(=S)Nc1ccc(Cl)cc1)C(=O)N1CCC[C@H]1C(=O)N1CCN(c2cccc(Cl)c2Cl)CC1 ({Thiocarbamoyl(N-4-ClPh)}-GGIP-{Piperazinyl(4-(2,3-Cl2Ph))})
stdout: 24

stdin: Requested field: zone of inhibition at 30 µg/mL. Item: CC[C@H](C)[C@H](NC(=O)CNC(=O)CNC(=S)Nc1ccc(OC)cc1)C(=O)N1CCC[C@H]1C(=O)N1CCN(c2cccc(Cl)c2Cl)CC1 ({Thiocarbamoyl(4-MeOPh)}-GGIP-{Piperazinyl(4-(2,3-Cl2Ph))})
stdout: 19

---

System: Aspergillus flavus
Assay: Antifungal activity against Aspergillus flavus after 72 hrs by microdilution method
Assay type: functional
Numbered stars: 1 amine (or outer) side, 2 acyl side, 3 side chain; on linkers, the order of the positions; unused ones are H or OH. Peptide text beside a SMILES is read from it. * marks the point of attachment. Piperazinyl(4-(2,3-Cl2Ph)) = Clc1cccc(N2CCN(*)CC2)c1Cl; Thiocarbamoyl(N-4-ClPh) = S=C(Nc1ccc(Cl)cc1)*; Thiocarbamoyl(N-2-FPh) = Fc1ccccc1NC(=S)*; NH(4-Cl-phenyl) = Clc1ccc(N*)cc1; X1 = Fc1ccc2c(C3CCN(*)CC3)noc2c1; NH(2-F-phenyl) = Fc1ccccc1N*; CO = O=C([*:1])[*:2]
measurement kind: MIC

Some solved cases for reference:
{"columns": ["compound", "assayed target", "measurement kind", "result"],
 "data": [
  ["CC(C)[C@H](NC(=O)CNC(=O)Nc1ccccc1F)C(=O)NCC(=O)N[C@H](C(=O)N1CCC[C@H]1C(=O)N1CCC(c2noc3cc(F)ccc23)CC1)C(C)C ({NH(2-F-phenyl)-CO}-GVGVP-X1)", "Aspergillus flavus", "MIC", "5.75 mg/L"],
  ["CC(C)[C@H](NC(=O)CNC(=S)Nc1ccc(Cl)cc1)C(=O)NCC(=O)N[C@H](C(=O)N1CCC[C@H]1C(=O)N1CCN(c2cccc(Cl)c2Cl)CC1)C(C)C ({Thiocarbamoyl(N-4-ClPh)}-GVGVP-{Piperazinyl(4-(2,3-Cl2Ph))})", "Aspergillus flavus", "MIC", "7.75 mg/L"],
  ["CC(C)[C@H](NC(=O)CNC(=S)Nc1ccccc1F)C(=O)NCC(=O)N[C@H](C(=O)N1CCC[C@H]1C(=O)N1CCC(c2noc3cc(F)ccc23)CC1)C(C)C ({Thiocarbamoyl(N-2-FPh)}-GVGVP-X1)", "Aspergillus flavus", "MIC", "5.5 mg/L"]
]}

stdin: Requested field: MIC. Item: CC(C)[C@H](NC(=O)CNC(=O)Nc1ccc(Cl)cc1)C(=O)NCC(=O)N[C@H](C(=O)N1CCC[C@H]1C(=O)N1CCC(c2noc3cc(F)ccc23)CC1)C(C)C ({NH(4-Cl-phenyl)-CO}-GVGVP-X1)
stdout: 7.5 mg/L

stdin: Requested field: MIC. Item: O=C(CNC(=S)Nc1ccc(Cl)cc1)N[C@@H](Cc1ccccc1)C(=O)NCC(=O)N[C@@H](Cc1ccccc1)C(=O)N1CCC[C@H]1C(=O)N1CCC(c2noc3cc(F)ccc23)CC1 ({Thiocarbamoyl(N-4-ClPh)}-GFGFP-X1)
stdout: 6 mg/L

stdin: Requested field: MIC. Item: O=C(CNC(=O)Nc1ccccc1F)NCC(=O)N[C@@H](Cc1ccccc1)C(=O)N1CCC[C@H]1C(=O)N1CCC(c2noc3cc(F)ccc23)CC1 ({NH(2-F-phenyl)-CO}-GGFP-X1)
stdout: 13 mg/L

stdin: Requested field: MIC. Item: O=C(CNC(=O)Nc1ccccc1F)N[C@@H](Cc1ccccc1)C(=O)NCC(=O)N[C@@H](Cc1ccccc1)C(=O)N1CCC[C@H]1C(=O)N1CCC(c2noc3cc(F)ccc23)CC1 ({NH(2-F-phenyl)-CO}-GFGFP-X1)
stdout: 4.75 mg/L

stdin: Requested field: MIC. Item: CC[C@H](C)[C@H](NC(=O)CNC(=O)CNC(=O)Nc1ccccc1F)C(=O)N1CCC[C@H]1C(=O)N1CCN(c2cccc(Cl)c2Cl)CC1 ({NH(2-F-phenyl)-CO}-GGIP-{Piperazinyl(4-(2,3-Cl2Ph))})
stdout: 14 mg/L

stdin: Requested field: MIC. Item: O=C(CNC(=S)Nc1ccc(Cl)cc1)N[C@@H](Cc1ccccc1)C(=O)NCC(=O)N[C@@H](Cc1ccccc1)C(=O)N1CCC[C@H]1C(=O)N1CCN(c2cccc(Cl)c2Cl)CC1 ({Thiocarbamoyl(N-4-ClPh)}-GFGFP-{Piperazinyl(4-(2,3-Cl2Ph))})
stdout: 6.5 mg/L

stdin: Requested field: MIC. Item: CC(C)[C@H](NC(=O)CNC(=S)Nc1ccc(Cl)cc1)C(=O)NCC(=O)N[C@H](C(=O)N1CCC[C@H]1C(=O)N1CCC(c2noc3cc(F)ccc23)CC1)C(C)C ({Thiocarbamoyl(N-4-ClPh)}-GVGVP-X1)
stdout: 6.75 mg/L

stdin: Requested field: MIC. Item: O=C(CNC(=O)Nc1ccccc1F)N[C@@H](Cc1ccccc1)C(=O)NCC(=O)N[C@@H](Cc1ccccc1)C(=O)N1CCC[C@H]1C(=O)N1CCN(c2cccc(Cl)c2Cl)CC1 ({NH(2-F-phenyl)-CO}-GFGFP-{Piperazinyl(4-(2,3-Cl2Ph))})
stdout: 5.25 mg/L

stdin: Requested field: MIC. Item: O=C(CNC(=S)Nc1ccccc1F)N[C@@H](Cc1ccccc1)C(=O)NCC(=O)N[C@@H](Cc1ccccc1)C(=O)N1CCC[C@H]1C(=O)N1CCC(c2noc3cc(F)ccc23)CC1 ({Thiocarbamoyl(N-2-FPh)}-GFGFP-X1)
stdout: 4.5 mg/L

stdin: Requested field: MIC. Item: O=C(CNC(=S)Nc1ccccc1F)NCC(=O)N[C@@H](Cc1ccccc1)C(=O)N1CCC[C@H]1C(=O)N1CCC(c2noc3cc(F)ccc23)CC1 ({Thiocarbamoyl(N-2-FPh)}-GGFP-X1)
stdout: 12.2 mg/L
